# Tested on: Pseudomonas aeruginosa NCTC 10490
# assay: Antibacterial activity, minimum inhibitory concentration, Pseudomonas aeruginosa NCTC 10490
# Assay type: cell-based
# conditionSummary: NCTC10490
Parameter MIC: see the listing below.
Response body: numeric value in µg/mL, unit text excluded.

[[record]]
compound = "Cc1cc(O)c(C(=O)NC(C(=O)NC2C(=O)N3C(C(=O)O)=C(CSc4nnnn4C)CSC23)c2cscn2)cn1 (racemic)"
assayedtarget = "Pseudomonas aeruginosa NCTC 10490"
numericreadout = 0.78


# input compound: CC(=O)OCC1=C(C(=O)O)N2C(=O)C(NC(=O)C(NC(=O)c3cnc(C)cc3O)c3cscn3)C2SC1 (racemic) ; wanted: its MIC
1.56

Consider the compound CC(=O)OCC1=C(C(=O)O)N2C(=O)C(NC(=O)C(NC(=O)c3csccc3=O)c3csc(N)n3)C2SC1 (racemic) and give its measured MIC.
25

Fill in: MIC of CC(=O)OCC1=C(C(=O)O)N2C(=O)C(NC(=O)C(NC(=O)c3cnc(C)cc3O)c3csc(N)n3)C2SC1 (racemic) is ___
1.56

Reported MIC, compound Cc1cc(O)c(C(=O)NC(C(=O)NC2C(=O)N3C(C(=O)O)=C(CSc4nnnn4C)CSC23)c2csc(N)n2)cn1 (racemic) : ____
0.39

###

Observed MIC values for Staphylococcus aureus 209P are listed in what follows.
Quick reminder: number only, in µg/mL, skip the unit.

What value of MIC has been reported for the following compound? CC(=O)OCC1=C(C(=O)O)N2C(=O)C(NC(=O)C(N)c3csc(N)n3)C2SC1 (stereo not shown) [Compound B, reference compound]
3.13

Can you look up the measured MIC of CC(=O)OCC1=C(C(=O)O)N2C(=O)C(NC(=O)C(NC(=O)c3cnc(C)cc3O)c3cscn3)C2SC1 (racemic) for me?
1.56

Would you mind telling me what MIC value was observed for Cn1nnnc1SCC1=C(C(=O)O)N2C(=O)C(NC(=O)C(N)c3csc(N)n3)C2SC1 (stereo not shown) [Compound A, reference compound] ?
12.5

What does the data say about its MIC? Entry: CC(=O)OCC1=C(C(=O)O)N2C(=O)C(NC(=O)C(NC(=O)c3csccc3=O)c3cscn3)C2SC1 (racemic)
1.56

Which value of MIC has been reported for CC(=O)OCC1=C(C(=O)O)N2C(=O)C(NC(=O)C(NC(=O)c3cnc(C)cc3O)c3csc(N)n3)C2SC1 (racemic) in the records?
3.13

###

# Tested on: Staphylococcus aureus Oonuma
# assay: Antibacterial activity, minimum inhibitory concentration, Staphylococcus aureus Oonuma
# Assay type: cell-based
# conditionSummary: Staphylococcus aureus Oonuma (penicillin, Streptomycin-resistant)
observedProperty: MIC (µg/mL)
Your answer is read as µg/mL, so omit the unit and give the number.

[[record]]
compound = "Cc1cc(O)c(C(=O)NC(C(=O)NC2C(=O)N3C(C(=O)O)=C(CSc4nnnn4C)CSC23)c2cscn2)cn1 (racemic) [Example 8]"
numericreadout = 6.25


Which MIC value is on record for Cn1nnnc1SCC1=C(C(=O)O)N2C(=O)C(NC(=O)C(N)c3csc(N)n3)C2SC1 (stereo not drawn) [Compound A, reference compound] ?
100

Recorded MIC of Cn1nnnc1SCC1=C(C(=O)O)N2C(=O)C(NC(=O)C(NC(=O)c3csccc3=O)c3csc(N)n3)C2SC1 (racemic) [Example 6] , please.
3.13

Which MIC is listed for CC(=O)OCC1=C(C(=O)O)N2C(=O)C(NC(=O)C(NC(=O)c3csccc3=O)c3csc(N)n3)C2SC1 (racemic) [Example 3] ?
6.25

Need MIC, item CC(=O)OCC1=C(C(=O)O)N2C(=O)C(NC(=O)C(NC(=O)c3cnc(C)cc3O)c3cscn3)C2SC1 (racemic) [Example 1]
6.25

Need MIC of CC(=O)OCC1=C(C(=O)O)N2C(=O)C(NC(=O)C(NC(=O)c3cnc(C)cc3O)c3csc(N)n3)C2SC1 (racemic) [Example 2] , thanks.
12.5

###

Here the recorded MIC is given for each entry.
# Tested on: Staphylococcus aureus Oonuma
# assay: Antibacterial activity, minimum inhibitory concentration, Staphylococcus aureus Oonuma
# Type: cell-based
# conditionSummary: Staphylococcus aureus Oonuma (penicillin, Streptomycin-resistant)
Unit µg/mL implied. Number only.

Example entries begin here.
[[record]]
molecule = "Cn1nnnc1SCC1=C(C(=O)O)N2C(=O)C(NC(=O)C(NC(=O)c3csccc3=O)c3cscn3)C2SC1 (racemic)"
assayedtarget = "Staphylococcus aureus Oonuma"
observedproperty = "MIC"
numericreadout = 6.25

[[record]]
molecule = "Cc1cc(O)c(C(=O)NC(C(=O)NC2C(=O)N3C(C(=O)O)=C(CSc4nnnn4C)CSC23)c2csc(N)n2)cn1 (racemic)"
assayedtarget = "Staphylococcus aureus Oonuma"
observedproperty = "MIC"
numericreadout = 6.25

[[record]]
molecule = "CC(=O)OCC1=C(C(=O)O)N2C(=O)C(NC(=O)C(N)c3csc(N)n3)C2SC1 (stereo not shown) [Compound B, reference compound]"
assayedtarget = "Staphylococcus aureus Oonuma"
observedproperty = "MIC"
numericreadout = 12.5


Lab note: next molecule to report on.
Fill in the blank: the reported MIC of CC(=O)OCC1=C(C(=O)O)N2C(=O)C(NC(=O)C(NC(=O)c3csccc3=O)c3cscn3)C2SC1 (racemic) is ____.
6.25

###

# System: Pseudomonas aeruginosa NCTC 10490
# assay: Antibacterial activity, minimum inhibitory concentration, Pseudomonas aeruginosa NCTC 10490
# Format: cell-based
# conditionSummary: NCTC10490
observedProperty: MIC (µg/mL)
Please respond with the number in µg/mL and leave the unit unwritten.

These solved cases illustrate the format of a correct answer.
[[record]]
compound = "CC(=O)OCC1=C(C(=O)O)N2C(=O)C(NC(=O)C(NC(=O)c3csccc3=O)c3cscn3)C2SC1 (racemic)"
assayedtarget = "Pseudomonas aeruginosa NCTC 10490"
observedproperty = "MIC"
unitdescriptor = "µg/mL"
numericreadout = 6.25

[[record]]
compound = "Cn1nnnc1SCC1=C(C(=O)O)N2C(=O)C(NC(=O)C(N)c3csc(N)n3)C2SC1 (stereo not shown) [Compound A, reference compound]"
assayedtarget = "Pseudomonas aeruginosa NCTC 10490"
observedproperty = "MIC"
unitdescriptor = "µg/mL"
numericreadout = 100

[[record]]
compound = "Cn1nnnc1SCC1=C(C(=O)O)N2C(=O)C(NC(=O)C(NC(=O)c3csccc3=O)c3csc(N)n3)C2SC1 (racemic)"
assayedtarget = "Pseudomonas aeruginosa NCTC 10490"
observedproperty = "MIC"
unitdescriptor = "µg/mL"
numericreadout = 0.78


Switching to the query record.
Which value of MIC has been reported for Cn1nnnc1SCC1=C(C(=O)O)N2C(=O)C(NC(=O)C(NC(=O)c3csccc3=O)c3cscn3)C2SC1 (racemic) in the records?
1.56

###

Measurement record for Staphylococcus aureus 209P; quantity recorded: MIC.
Give your result in µg/mL as a bare value.

Past entries and their recorded results:
[[record]]
compound = "Cc1cc(O)c(C(=O)NC(C(=O)NC2C(=O)N3C(C(=O)O)=C(CSc4nnnn4C)CSC23)c2cscn2)cn1 (racemic)"
numericreadout = 1.56

[[record]]
compound = "CC(=O)OCC1=C(C(=O)O)N2C(=O)C(NC(=O)C(NC(=O)c3csccc3=O)c3csc(N)n3)C2SC1 (racemic)"
numericreadout = 1.56

[[record]]
compound = "Cn1nnnc1SCC1=C(C(=O)O)N2C(=O)C(NC(=O)C(NC(=O)c3csccc3=O)c3csc(N)n3)C2SC1 (racemic)"
numericreadout = 0.78

[[record]]
compound = "Cc1cc(O)c(C(=O)NC(C(=O)NC2C(=O)N3C(C(=O)O)=C(CSc4nnnn4C)CSC23)c2csc(N)n2)cn1 (racemic)"
numericreadout = 1.56


Consider the record given below.
Provide the documented MIC with Staphylococcus aureus 209P as the system for Cn1nnnc1SCC1=C(C(=O)O)N2C(=O)C(NC(=O)C(NC(=O)c3csccc3=O)c3cscn3)C2SC1 (racemic)
0.78
